- Tested on: Pseudomonas aeruginosa PAE19-3
- Format: cell-based
- Setup conditions: PAE19-3
Bridge positions count the residues as written; N and C are the ends. Square brackets hold non-standard residues; d marks the D form. Peptide text beside a SMILES is read from it. * marks the point of attachment. Heptanoyl(6-Me) = CC(C)CCCCC(=O)*; dOrn = NCCC[C@@H](N)C(=O)O; dDab = NCC[C@@H](N)C(=O)O; Heptanoyl = CCCCCCC(=O)*; Orn = NCCC[C@H](N)C(=O)O; Dab = NCC[C@H](N)C(=O)O; Dap = NC[C@H](N)C(=O)O
Readout: MIC (µg/mL)
The reply should contain only the number, in µg/mL.

Value of measured MIC for the entry CCCCCCC(=O)N[C@@H](CN)C(=O)N[C@H](C(=O)N[C@H](CCN)C(=O)N[C@H]1CCNC(=O)[C@H]([C@@H](C)O)NC(=O)[C@H](CCN)NC(=O)[C@H](CCN)NC(=O)[C@H](CC(C)C)NC(=O)[C@@H](Cc2ccccc2)NC(=O)[C@H](CCN)NC1=O)[C@@H](C)O [Compound 94] (Heptanoyl-[Dap]T[dDab][Dab][Dab][dF]L[Dab][Dab]T; lactam 4-C) : 1

compound CC(C)CCCCC(=O)N[C@@H](CCN)C(=O)N[C@H](C(=O)N[C@@H](CCCN)C(=O)N[C@H]1CCNC(=O)[C@H]([C@@H](C)O)NC(=O)[C@H](CCN)NC(=O)[C@H](CCN)NC(=O)[C@H](CC(C)C)NC(=O)[C@@H](Cc2ccccc2)NC(=O)[C@H](CCN)NC1=O)[C@@H](C)O [Compound 47] ({Heptanoyl(6-Me)}-[Dab]T[Orn][Dab][Dab][dF]L[Dab][Dab]T; lactam 4-C) , MIC observed: 0.25

Quick note, MIC for CC(C)CCCCC(=O)N[C@@H](CCN)C(=O)N[C@H](C(=O)N[C@H](CCCN)C(=O)N[C@H]1CCNC(=O)[C@H]([C@@H](C)O)NC(=O)[C@H](CCN)NC(=O)[C@H](CCN)NC(=O)[C@H](CC(C)C)NC(=O)[C@@H](Cc2ccccc2)NC(=O)[C@H](CCN)NC1=O)[C@@H](C)O [Compound 42] ({Heptanoyl(6-Me)}-[Dab]T[dOrn][Dab][Dab][dF]L[Dab][Dab]T; lactam 4-C) landed at 1

###

- System: Pseudomonas aeruginosa PAE19-3
- Type: cell-based
- Setup conditions: PAE19-3
Numbered stars: 1 amine (or outer) side, 2 acyl side, 3 side chain; on linkers, the order of the positions; unused ones are H or OH. Bridge positions count the residues as written; N and C are the ends. Square brackets hold non-standard residues; d marks the D form. Peptide text beside a SMILES is read from it. * marks the point of attachment. X2 = O=C([C@H](CNCS(=O)(=O)O)N[*:1])[*:2]; Heptanoyl(6-Me) = CC(C)CCCCC(=O)*; X1 = CC[C@H](C)CCCCC(=O)*; dDab = NCC[C@@H](N)C(=O)O; Heptanoyl = CCCCCCC(=O)*; Octanoyl = CCCCCCCC(=O)*; Orn = NCCC[C@H](N)C(=O)O; Dab = NCC[C@H](N)C(=O)O; Dap = NC[C@H](N)C(=O)O
Readout: MIC (µg/mL)
The answer is to be given in µg/mL; state only the numeric part.

Kindly note the recorded MIC for CC[C@H](C)CCCCC(=O)N[C@@H](CCN)C(=O)N[C@H](C(=O)N[C@H](CCN)C(=O)N[C@H]1CCNC(=O)[C@H]([C@@H](C)O)NC(=O)[C@H](CCN)NC(=O)[C@H](CCN)NC(=O)[C@H]([C@@H](C)O)NC(=O)[C@@H](Cc2ccccc2)NC(=O)[C@H](CCN)NC1=O)[C@@H](C)O [Compound 11] (X1-[Dab]T[dDab][Dab][Dab][dF]T[Dab][Dab]T; lactam 4-C) , which is 1

What the record says about CCCCCCC(=O)N[C@@H](CCN)C(=O)N[C@H](C(=O)N[C@H](CCN)C(=O)N[C@H]1CCNC(=O)[C@H]([C@@H](C)O)NC(=O)[C@H](CCN)NC(=O)[C@H](CCN)NC(=O)[C@H]([C@@H](C)O)NC(=O)[C@@H](Cc2ccccc2)NC(=O)[C@H](CCN)NC1=O)[C@@H](C)O [Compound 14] (Heptanoyl-[Dab]T[dDab][Dab][Dab][dF]T[Dab][Dab]T; lactam 4-C) : MIC is 2

Lab note: measured MIC of CC(C)CCCCC(=O)N[C@@H](CCN)C(=O)N[C@H](C(=O)N[C@@H](CNCS(=O)(=O)O)C(=O)N[C@H]1CCNC(=O)[C@H]([C@@H](C)O)NC(=O)[C@H](CCN)NC(=O)[C@H](CCN)NC(=O)[C@H]([C@@H](C)O)NC(=O)[C@@H](Cc2ccccc2)NC(=O)[C@H](CCN)NC1=O)[C@@H](C)O [Compound 112] ({Heptanoyl(6-Me)}-[Dab]T[X2][Dab][Dab][dF]T[Dab][Dab]T; lactam 4-C) was 0.25

Memo: CCCCCCC(=O)N[C@@H](CCN)C(=O)N[C@H](C(=O)N[C@H](CO)C(=O)N[C@H]1CCNC(=O)[C@H]([C@@H](C)O)NC(=O)[C@H](CCN)NC(=O)[C@H](CN)NC(=O)[C@H]([C@@H](C)O)NC(=O)[C@@H](Cc2ccccc2)NC(=O)[C@H](CCN)NC1=O)[C@@H](C)O [Compound 74] (Heptanoyl-[Dab]T[dS][Dab][Dab][dF]T[Dap][Dab]T; lactam 4-C) , reported MIC: 64

The recorded MIC for CCCCCCCC(=O)N[C@@H](CCN)C(=O)N[C@H](C(=O)N[C@@H](CCCN)C(=O)N[C@H]1CCNC(=O)[C@H]([C@@H](C)O)NC(=O)[C@H](CCN)NC(=O)[C@H](CCN)NC(=O)[C@H]([C@@H](C)O)NC(=O)[C@@H](Cc2ccccc2)NC(=O)[C@H](CCN)NC1=O)[C@@H](C)O [Compound 28] (Octanoyl-[Dab]T[Orn][Dab][Dab][dF]T[Dab][Dab]T; lactam 4-C) is 0.25
